Target: Human ATX (Homo sapiens (Human), UniProt Q13822)
Assay: Assay A: Biochemical ATX Assay
Conditions: 5 nM recombinant ATX, 18:1 LPC substrate, 2 h at room temperature, formation of 18:1 LPA by RapidFire MS
pIC50: −log10 of the molar value.
property: pIC50

compound: CC(=O)N1CCC2(CC1)CN(c1ccc(CNc3ccc(OCc4ccc(C(F)(F)F)nc4)nn3)cc1)C2
numericReadout: 8.21
--
compound: CC(=O)N1CC2CCC(C1)N2c1ccc(CNc2ccc(OCc3ccc(C(F)(F)F)nc3)nn2)cc1
numericReadout: 8.62
--
compound: CC(=O)N1CCN(c2ccc(CNc3ccc(OCc4ccc(C(F)(F)F)nc4)nn3)cc2)CC1
numericReadout: 8.52
--
compound: CC(=O)N(C)C1CCN(c2ccc(CNc3ccc(OCc4ccc(C(F)(F)F)nc4)nn3)cc2)CC1
numericReadout: 8.64
--
compound: CC(=O)N1CCN(c2ccc(CNc3ccc(OCc4cnc(C(F)F)c(F)c4)nn3)cc2)CC1
numericReadout: 8.46

a: CC(=O)N1CCN(c2ccc(CNc3ccc(OCc4ccc(C(F)(F)F)nc4)nn3)nc2)CC1
b: CC(=O)N1CC2CC1CN2c1ccc(CNc2ccc(OCc3ccc(C(F)(F)F)nc3)nn2)cc1 (stereo not shown)
## Input Which numeric pIC50 is bigger, that of a or that of b ? Your answer should be the label of the entry you select.
## Output a

---

Target: Human ATX (Homo sapiens (Human))
Assay: Assay A: Biochemical ATX Assay
Conditions: 5 nM recombinant ATX, 18:1 LPC substrate, 2 h at room temperature, formation of 18:1 LPA by RapidFire MS
pIC50: −log10 of the molar value.
property: pIC50

Examples from the recorded data:
compound: CC(=O)N1CCN(c2ccc(CNc3ccc(OCc4ccc(C(F)(F)F)nc4)nn3)cn2)CC1
pIC50: 8.60
--
compound: CN1CC2(CC1=O)CN(c1ccc(CNc3ccc(OCc4ccc(C(F)F)nc4)nn3)cc1)C2
pIC50: 8.41
--
compound: CC(=O)N1C[C@@H]2CN(c3ccc(CNc4ccc(OCc5ccc(C(F)(F)F)nc5)nn4)cc3)C[C@@H]2C1
pIC50: 8.40
--
compound: CC(=O)N1CCN(c2ccc(CNc3ccc(OCc4ccc(C(F)F)nc4)nn3)cn2)CC1
pIC50: 8.66

a: CC(=O)N1CC2CCC1CN2c1ccc(CNc2ccc(OCc3ccc(C(F)(F)F)nc3)nn2)cc1 (stereo not shown)
b: FC(F)c1ccc(COc2ccc(NCc3ccc(N4CCN(C5COC5)CC4)cc3)nn2)cn1
c: CC(=O)N1CCC2(CC1)CN(c1ccc(CNc3ccc(OCc4ccc(C(F)F)nc4)nn3)cn1)C2
## Input Order the 3 compounds from highest to lowest pIC50. Response field: labels, in requested order.
## Output b, a, c

---

Target: Human ATX (Homo sapiens (Human), UniProt Q13822)
Test: Assay A: Biochemical ATX Assay
Details: 5 nM recombinant ATX, 18:1 LPC substrate, 2 h at room temperature, formation of 18:1 LPA by RapidFire MS
property: IC50 (nM)

compound: CC(=O)N1CCN(c2ccc(CNc3ccc(OCc4ccc(C(F)F)nc4)nn3)c(C(F)(F)F)c2)CC1
IC50 [nM]: 1.9
//
compound: FC(F)(F)c1ccc(COc2ccc(NCc3ccc(N4CCN(C5COC5)CC4)cc3)nn2)cn1
IC50 [nM]: 2
//
compound: CC(=O)N1CC2CC1CN2c1ccc(CNc2ccc(OCc3ccc(C(F)F)nc3)nn2)cc1 (stereo not drawn)
IC50 [nM]: 1.8
